PROCEDURE_DETAILS: yeast display, Sf9 membrane polyspecificity reagent, FACS + sequencing; frameworks hold sequencing errors
REPORTED_ENDPOINT: polyreactivity (PSR sort gate)

seq_string=QVQLVESGGGLVQAGGSLRLSCAASGRTFDIYAMGWYRQAHGKERELVAAISSGGSTYYADSVKGRFTISRDNAKNTVYLQMNSLKPEDTAVYYCAVRWYDQVSRRGIGYYWGQGTQVTVSS result="low polyreactivity"
seq_string=QVQLVESGGGLVQAGGSLRLSCAPSGSTLYRNAMGWYRQAPGQDRELVAAINYRGTRTYDADSVKGRFTISRDTAKNTVYLQMNSLQPEDTAVYFCAKDYSQFVTYPYDYWGQGTQVTVSS result="low polyreactivity"
seq_string=QVQLVESGGGLVQAGGSLRISCAASGLTFVYYTMGWYSQAPGKEREFVAGIDWSGGSTYYADSVKLRFTISRDNAKNTVYLQMNSLKPEDTAVYYCAAAVYYQYGVYRHDYWGQGTQVTVSS result="low polyreactivity"
seq_string=QVQLVESGGGLVQAGGSLRLSCAASGRTIRRNAMGWYRQAPGKERELVAGISGSGTITYADSVKGRFTISRDNAKNTVYLQMNSLKPEDTAVYYCAARRKSFYTFYYWGQGTQVTVSS result="high polyreactivity"
seq_string=QVQLVESGGGLVQAGGSLRLICAASGSIIGVNAMGWYRQAPGKERELVAAITSTGGSTYYADSVKGRFTISRDNAKNTVYLKMNSLKPEDTAVYYCNTHYSKSIGEGYAGFDYWGQGTQVTVSS result="low polyreactivity"
seq_string=QVQLVESGGGLVQAGGSLRLSCAASGSIFEWYAMGWYRQAPGKERELVATITGSGGSTYYADSVKGRFTISRDNAKNTVYLQMNSLKPEDTAVYYCAAVPPPGGLDYWGQGTQVTVSS result="high polyreactivity"
seq_string=QVQLVESGGGLVQAGGSLRLSCAASGRTFFSNAMGWYRQAPGKERELVAAISNGDNTYFADSVKGRFTISRDNAKNTVYLQMNSLKPEDTAVYYCNTVRRSYWSWSTENSDYWGQGTQVTVSS result="low polyreactivity"
seq_string=QVQLVESGGGLVQAGGSLRLSCAASGFIFYKNAMGWYRQAPGKERELVAAISRRGSSTYYADSVKGRFTISRDNAKNTVYLQMNSLKPEDTAVYYCAADSHIDHGKWAYDYWGQGTQVTVSS result="high polyreactivity"
seq_string=QVQLVESRVGLVQAGGSLRLSCAASGITFYGYAMGWYRQAPGKERELVAAITSGGSTYYADTVKGRFTISRDNAKNTVYFQMNSLKPEDTAVYYCAAYLRRAYVHSYERYYWGQGTQVTVSS result="low polyreactivity"
seq_string=QVQLVESGGGLVQAGGSLRLSCAASGFIFWYNAKGWYRQAPGKERELVAAISSGGSTHYADSVKGRFTISRDNAKNTVYLLMNSLKPEDTAVYYCNTDGYHSNRLDDYDYWRQGTQVTVSS result="low polyreactivity"

---

PROCEDURE_DETAILS: yeast display, Sf9 membrane polyspecificity reagent, FACS + sequencing; frameworks hold sequencing errors
REPORTED_ENDPOINT: polyreactivity (PSR sort gate)

seq_string=QVQLQESGGLVQAGGLRLSSAASGSVSYQEAMGWYRQAPGKERELVATISFGANTNYADSVKGRFTISRDNAKNTVYLQMNSLKPEDTAVYYCAAESLFDDYYGYWGQGTQVTVSS result="low polyreactivity"
seq_string=QVQLVESGGGLVQAGGSLRLSCAASGFYYYAMGWYRQAPGKERELVAVITYSGGSTYYADSVKGRFTISRDNAKNTVYLQMNSVKPEDTAVYYCAADYRPGYDYWGQGTQVTVSS result="low polyreactivity"

Values compiled from the nanobody polyreactivity screen of Harvey et al. (2022).
